Biological target: T1, His-tagged cynomolgus TIGIT (cynomolgus, UniProt A0A7N9I9V4 89-209)
T1 construct: SPR analyte; also called cynomolgus TIGIT protein; not shown: His tag
T1 sequence (A0A7N9I9V4 entry or part of it): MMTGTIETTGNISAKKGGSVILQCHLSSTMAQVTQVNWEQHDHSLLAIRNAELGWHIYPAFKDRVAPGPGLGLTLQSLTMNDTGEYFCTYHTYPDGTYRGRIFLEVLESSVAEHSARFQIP
Assay: SPR (Biacore T200), antibody captured, His-tagged TIGIT analyte
MEASURED_ATTRIBUTE: kon (M⁻¹ s⁻¹)
Give the value in M⁻¹ s⁻¹ but do not write M⁻¹ s⁻¹ after it.

BINDER	MEASURED_ATTRIBUTE	UNIT_OF_MEASURE	READOUT_VALUE
huTIGIT-19-4 (antibody, human IgG1, kappa, V domains shown, Humanized IgG; also called 19VH4.M10 + 19VL1.M7) VH: QVQLVQSGAEVKKPGASVKVSCKASGYTFTRYSMYWVRQAPGQGLEWIAFIDAYSGGSTYAQKFQGKATLTVDTSISTAYMELSRLRSDDTAVYYCARGGDYGWYLGVWGQGTLVTVSS VL: DIQMTQSPSSLSASVGDRVTITCRASQSIYSYLSWYQQKPGKAPKLLIYNAKSLPSGVPSRFSGSGSGTDFTLTISSLQPEDFATYYCQHHYGNPLTFGQGTKVEIKR	kon	M⁻¹ s⁻¹	840000

Continue with the next binder.
Recorded kon for huTIGIT-6-2 (antibody, human IgG1, kappa, V domains shown, Humanized IgG; also called 6VH6.M5 + 6VL1.M1) VH: QVQLVQSGAEVKKPGASVKVSCKASGYTITENTMHWVRQAPGQRLEWIGGINPNNAGTSYSQKFQGRATLTVDTSASTAYMELSSLRSEDTAVYYCTRSSYYRYDLDYWGQGTTVTVSS VL: DIQMTQSPSSLSASVGDRVTITCQASQDIKTALAWYQQKPGKAPKLLIYSASYRYTGVPSRFSGSGSGTDFTFTISSLQPEDIATYYCHQHYTTPWTFGGGTKLEIKR , please? 69000
